Attribute: LC retention time
measurementProtocol: RP, Thermo Scientific Acclaim RSLC 120 C18, 100 × 2.1 mm, 2.2 µm, 30 °C, 0.2 mL/min, estimated dead time 1.1 min; A: 90% water + 10% methanol + 0.01% formic acid + 5 mM ammonium formate, pH 3.61; B: methanol + 0.01% formic acid + 5 mM ammonium formate, pH 3.61; gradient (min/%B) 0/1 1/1 2/39 13/99.9 15/99.9 15.1/1 20.1/1
conditionLabel: stereoisomer not certain
observationType: LC retention time (min)

molecule	observationType	assayValue
Nc1ccc(S(=O)(=O)Nc2cnc3ccccc3n2)cc1 [Sulfaquinoxaline]	LC retention time	5.81
OCCN(CCO)c1nc(N2CCCCC2)c2nc(N(CCO)CCO)nc(N3CCCCC3)c2n1 [Dipyridamole]	LC retention time	9.36
COc1ccc(Cl)cc1C(=O)NCCc1ccc(S(=O)(=O)NC(=O)NC2CCCCC2)cc1 [Glibenclamide]	LC retention time	9.98
CN1CCN(C(c2ccccc2)c2ccc(Cl)cc2)CC1 (centres undefined) [Chlorcyclizine]	LC retention time	8.28
COC(=O)COc1ccc(Cl)cc1Cl [2.4-D-methylester]	LC retention time	9.61
Oc1ccc2c3c1OC1C(O)C=CC4C(C2)NCCC341 (centres undefined) [Morphine-Nor]	LC retention time	2.71
c1cc[c]([Sn+]([c]2ccccc2)[c]2ccccc2)cc1 [Fentin (triphenylstannylium) (1+)]	LC retention time	10.4
N=C1NC(=O)C(c2ccccc2)O1 (centres undefined) [Pemoline]	LC retention time	4.34
CC1CCC2(OC1)OC1CC3C4CC=C5CC(O)CCC5(C)C4CCC3(C)C1C2C (centres undefined) [Diosgenin]	LC retention time	15.1

---

measurementProtocol: RP, Thermo Scientific Acclaim RSLC 120 C18, 100 × 2.1 mm, 2.2 µm, 30 °C, 0.2 mL/min, estimated dead time 1.1 min; A: 90% water + 10% methanol + 0.01% formic acid + 5 mM ammonium formate, pH 3.61; B: methanol + 0.01% formic acid + 5 mM ammonium formate, pH 3.61; gradient (min/%B) 0/1 1/1 2/39 13/99.9 15/99.9 15.1/1 20.1/1
conditionLabel: stereoisomer not certain
Kindly apply the following: t if LC retention time is less than 8 min, f in every other case.

compound	qualitativeLabel
O=C(CCCN1CCC(n2c(=O)[nH]c3ccccc32)CC1)c1ccc(F)cc1	t
CN=C(NC)NCc1ccccc1	t
Cc1ncc(CO)c(CO)c1O	t
CCOP(=O)(SC(C)CC)N1CCSC1=O (stereo not drawn) [Fosthiazate]	t
OCc1nnc2n1-c1ccc(Cl)cc1C(c1ccccc1Cl)=NC2 [Triazolam-1-Hydroxymethyl (alpha-Hydroxy-Triazolam)]	t
CCc1cc2c(s1)-n1c(C)nnc1CN=C2c1ccccc1Cl	f
CCOP(=O)(OCC)OC(=CCl)c1ccc(Cl)cc1Cl (mixture of isomers) [Chlorfenvinphos (E/Z) Peak 1 (Main)]	f
O=C(NC(=O)c1c(F)cccc1F)Nc1cc(Cl)c(OC(F)(F)C(F)C(F)(F)F)cc1Cl (stereo not drawn)	f

---

measurementProtocol: RP, Thermo Scientific Acclaim RSLC 120 C18, 100 × 2.1 mm, 2.2 µm, 30 °C, 0.2 mL/min, estimated dead time 1.1 min; A: 90% water + 10% methanol + 0.01% formic acid + 5 mM ammonium formate, pH 3.61; B: methanol + 0.01% formic acid + 5 mM ammonium formate, pH 3.61; gradient (min/%B) 0/1 1/1 2/39 13/99.9 15/99.9 15.1/1 20.1/1
conditionLabel: stereoisomer not certain
Range-based classes on measured LC retention time: Low = under 6 min, Medium = from 6 min up to 8 min, High = 8 min and over

compound	qualitativeLabel
CCOc1ccc(S(=O)(=O)O)c2cccnc12	Low
O=C1CN(O)C(c2ccccc2)=c2cc(Cl)ccc2=N1	Medium
CC(C)c1nc(CN(C)C(=O)NC(C(=O)NC(Cc2ccccc2)CC(O)C(Cc2ccccc2)NC(=O)OCc2cncs2)C(C)C)cs1 (configuration not stated)	High
COC(=O)c1ccc(C)cc1C1=NC(C)(C(C)C)C(=O)N1 (configuration not stated)	Medium
COC(=O)CSP(=S)(OC)OC	Medium
OCCOCCOCCN1CCN(C(c2ccccc2)c2ccc(Cl)cc2)CC1 (configuration not stated)	High
O=C(Oc1cccc2cccnc12)c1cn(CCCCCF)c2ccccc12	High
CCc1cccc(C)c1N(C(=O)CS(=O)(=O)O)C(C)C(=O)O (configuration not stated)	High
CC(=O)Nc1ccc(S(=O)(=O)Nc2nccs2)cc1	Low
COCc1c(C(C)C)nc(C(C)C)c(C=CC(O)CC(O)CC(=O)O)c1-c1ccc(F)cc1 (configuration not stated)	High
Cc1cccc(Nc2ccccc2C(=O)O)c1C	High
CNC(=O)Oc1ccc(N(C)C)c(C)c1	Low
S=c1nc[nH]c2nc[nH]c12	Low
CCOC(=O)Nc1cccc(OC(=O)Nc2ccccc2)c1	High
CCC(NC)C(=O)c1ccccc1 (configuration not stated)	Low
CC(C(=O)c1ccc2c(c1)OCO2)N1CCCC1 (configuration not stated)	Low
NC(Cc1cc(I)c(O)c(I)c1)C(=O)O (configuration not stated)	Low
CC(C)=CCN1CCC2(C)c3cc(O)ccc3CC1C2C (configuration not stated)	Low
Cc1cccc(C)c1NC(=O)CS(=O)(=O)O	High
CN1CCN2c3ccccc3Cc3ccccc3C2C1 (configuration not stated)	Medium
Cn1c(=O)c2c(ncn2CCCNCC(O)c2cc(O)cc(O)c2)n(C)c1=O (configuration not stated)	Low
CCOP(=S)(OCC)Oc1cc(-c2ccccc2)on1	High
O=C(O)Cc1cccc2ccccc12	Medium
CCCCCCCCCCCCCCN(C)C	High
CC(C)c1ccc(NC(=O)N(C)C)cc1	High
CCCCC(=O)OC1(C(=O)CO)C(C)CC2C3CCC4=CC(=O)C=CC4(C)C3(F)C(O)CC21C (configuration not stated) [Betamethasone-17-valerate]	High
CCCNC(C)C(=O)Nc1ccccc1C (configuration not stated)	Low
O=C1NC(=O)C(c2ccccc2)(c2ccccc2)N1	Medium
COCCN(C(=O)CCl)c1c(C)cccc1C	High
CN1CCCC1Cc1c[nH]c2ccc(CCS(=O)(=O)c3ccccc3)cc12 (configuration not stated)	Low
CC1(C)OC2CC3C4CCC5=CC(=O)CCC5(C)C4(F)C(O)CC3(C)C2(C(=O)CCl)O1 (configuration not stated) [Halcinonide]	High

---

measurementProtocol: RP, Thermo Scientific Acclaim RSLC 120 C18, 100 × 2.1 mm, 2.2 µm, 30 °C, 0.2 mL/min, estimated dead time 1.1 min; A: 90% water + 10% methanol + 0.01% formic acid + 5 mM ammonium formate, pH 3.61; B: methanol + 0.01% formic acid + 5 mM ammonium formate, pH 3.61; gradient (min/%B) 0/1 1/1 2/39 13/99.9 15/99.9 15.1/1 20.1/1
conditionLabel: stereoisomer not certain
Outcome label depends on LC retention time relative to 8 min: at/above gives yes (1), below gives no (0).

molecule	qualitativeLabel
CN1CCC23c4c5ccc(O)c4OC2CCCC3C1C5 (stereo not drawn)	no (0)
CNCC(C)CN1c2ccccc2Sc2ccc(OC)cc21 (stereo not drawn)	yes (1)
O=C(c1cccc(F)c1)N1CCC(N2CCN(c3ccccc3)CC2)CC1	yes (1)
COC(=O)c1cccc(C)c1S(=O)(=O)NC(=O)Nc1nc(OCC(F)(F)F)nc(N(C)C)n1	yes (1)
O=c1[nH]c2ccccc2n1CCN1CCN(c2cccc(C(F)(F)F)c2)CC1	yes (1)
NCCc1cnc[nH]1	no (0)
CNCC(c1ccc(O)cc1)C1(O)CCCCC1 (stereo not drawn)	no (0)
COC1CC(CC2CCC(C)C(C(C)C(=O)O)O2)OC2(OC(C)(C3CCC(C)(C4OC(C5OC(O)(CO)C(C)CC5C)CC4C)O3)CC2C)C1C (stereo not drawn)	yes (1)

---

measurementProtocol: RP, Thermo Scientific Acclaim RSLC 120 C18, 100 × 2.1 mm, 2.2 µm, 30 °C, 0.2 mL/min, estimated dead time 1.1 min; A: 90% water + 10% methanol + 0.01% formic acid + 5 mM ammonium formate, pH 3.61; B: methanol + 0.01% formic acid + 5 mM ammonium formate, pH 3.61; gradient (min/%B) 0/1 1/1 2/39 13/99.9 15/99.9 15.1/1 20.1/1
conditionLabel: stereoisomer not certain

compound	LC retention time, min
CCN(CC)C(=O)C(Cl)=C(C)OP(=O)(OC)OC	6.27
CC(N)Cc1ccccc1 (centres undefined)	4.16
CC(=O)CC(c1ccccc1)c1c(O)c2ccccc2oc1=O (centres undefined)	9.35
CNC(=O)Nc1ccc(Cl)c(Cl)c1	8.51
CCc1cc2cc(OC)c(OC)cc2c(Cc2ccccc2)n1	8.29
Cc1cc(C)cc(C(=O)N(NC(=O)c2ccc3c(c2C)CCCO3)C(C)(C)C)c1 [Chromafenozide]	9.93
CN(c1nccc(=O)[nH]1)C1CCN(c2nc3ccccc3n2Cc2ccc(F)cc2)CC1	9.14
CN1CCC(=C2c3ccccc3C=Cc3ccccc32)CC1	7.89
CC(Cc1ccccc1)N1C=C(NC(=O)N=C2C=CC(=O)C=C2)ON1 (centres undefined) [Mesocarb-P-Hydroxy]	7.24

Data credit: the RepoRT retention time repository (doi:10.1021/acs.analchem.2c02893)
